Source: ChEMBL document CHEMBL1944635

Species: Homo sapiens
test: Selectivity ratio of IC50 for human CHK1 to IC50 for human CHK2
observed-property: Ratio IC50

P = CNC1=NC(=O)/C(=C2\CCNC(=O)c3[nH]c(-c4ccccc4)cc32)N1
Q = COc1ccc(-c2cc3c([nH]2)C(=O)NCC/C3=C2/NC(N)=NC2=O)cc1OC
R = NC1=N/C(=C2/CCNC(=O)c3[nH]ccc32)C(=O)N1
Input: Reorder the list above by recorded Ratio IC50 in ascending order. Labels, requested order.
Output: R, P, Q

* * *

Serine/threonine-protein kinase Chk1 (Homo sapiens, UniProt O14757) measurements of IC50, listed per entry.
Sequence (O14757 whole entry): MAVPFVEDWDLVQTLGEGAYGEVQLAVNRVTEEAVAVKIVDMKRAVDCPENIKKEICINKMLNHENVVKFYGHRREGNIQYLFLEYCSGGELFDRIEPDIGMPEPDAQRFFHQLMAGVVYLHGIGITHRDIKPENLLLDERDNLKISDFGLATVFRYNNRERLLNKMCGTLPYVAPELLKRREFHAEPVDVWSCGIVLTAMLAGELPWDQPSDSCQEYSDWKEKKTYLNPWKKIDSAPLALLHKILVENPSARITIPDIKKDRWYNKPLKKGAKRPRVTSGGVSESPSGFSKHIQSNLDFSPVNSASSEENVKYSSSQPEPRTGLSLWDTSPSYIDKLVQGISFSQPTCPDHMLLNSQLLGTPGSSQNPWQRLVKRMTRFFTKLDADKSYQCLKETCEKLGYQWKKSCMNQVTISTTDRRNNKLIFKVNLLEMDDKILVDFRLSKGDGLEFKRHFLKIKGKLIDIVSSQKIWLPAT
observed-property: IC50 (µM)

1 = Nc1nc(C2=C3C(=Nc4ccccc43)C(=O)NCC2)c(O)[nH]1
2 = COc1ccc(-c2cc3c([nH]2)C(=O)NCC/C3=C2/NC(N)=NC2=O)cc1OC
Input: Which has the higher IC50, 1 or 2 ? Please indicate the selected item by its label.
Output: 2
